Listing of entries alongside the reported polymerase ribozyme fitness (log ratio).
B1: TPR 5TU (parent)
chain: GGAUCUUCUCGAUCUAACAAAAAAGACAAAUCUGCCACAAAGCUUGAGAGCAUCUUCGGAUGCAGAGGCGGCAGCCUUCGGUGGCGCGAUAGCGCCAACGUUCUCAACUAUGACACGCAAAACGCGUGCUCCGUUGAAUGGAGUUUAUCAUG

variants of: B1; assay: polymerase ribozyme fitness, log enrichment relative to wild type (log ratio); higher = more active; in vitro selection for triplet polymerase activity
Fewer inactive variants are shown than the library holds.
outcome measure: polymerase ribozyme fitness (log ratio)

{"mutant name": "C32G U82G", "outcome measure": "polymerase ribozyme fitness (log ratio)", "assay value": "≤ -4.2"}
{"mutant name": "U55A G84A G143A", "outcome measure": "polymerase ribozyme fitness (log ratio)", "assay value": -0.776}
{"mutant name": "A21U U44A C93G G94C", "outcome measure": "polymerase ribozyme fitness (log ratio)", "assay value": "≤ -4.2"}
{"mutant name": "A19G C85U", "outcome measure": "polymerase ribozyme fitness (log ratio)", "assay value": -1.3}
{"mutant name": "A60U G141U", "outcome measure": "polymerase ribozyme fitness (log ratio)", "assay value": 0.392}
{"mutant name": "C5A C27U U55G G83A G92U U148A", "outcome measure": "polymerase ribozyme fitness (log ratio)", "assay value": "≤ -4.2"}
{"mutant name": "C93U A121C G140C", "outcome measure": "polymerase ribozyme fitness (log ratio)", "assay value": "≤ -4.2"}
{"mutant name": "U33A C38G A52U C87G G136A", "outcome measure": "polymerase ribozyme fitness (log ratio)", "assay value": "≤ -4.2"}
{"mutant name": "A49U G84U A97G C114G", "outcome measure": "polymerase ribozyme fitness (log ratio)", "assay value": "≤ -4.2"}
{"mutant name": "G67C G92U C99U A107U U148A", "outcome measure": "polymerase ribozyme fitness (log ratio)", "assay value": "≤ -4.2"}
{"mutant name": "C93G G128U U146C", "outcome measure": "polymerase ribozyme fitness (log ratio)", "assay value": "≤ -4.2"}
{"mutant name": "A12G U45A C57G U78A G80U C103A C118G", "outcome measure": "polymerase ribozyme fitness (log ratio)", "assay value": "≤ -4.2"}
{"mutant name": "C38U A52C A120U", "outcome measure": "polymerase ribozyme fitness (log ratio)", "assay value": -1.22}
{"mutant name": "A12U A91U A120G U146A", "outcome measure": "polymerase ribozyme fitness (log ratio)", "assay value": -4.18}
{"mutant name": "C93U A98G G124C", "outcome measure": "polymerase ribozyme fitness (log ratio)", "assay value": -1.76}
{"mutant name": "G50A C54U U56A G70A C87G U90A C95G U109G C114G G141U", "outcome measure": "polymerase ribozyme fitness (log ratio)", "assay value": "≤ -4.2"}
{"mutant name": "A22U A41C A52U G124U", "outcome measure": "polymerase ribozyme fitness (log ratio)", "assay value": -2.3}
{"mutant name": "C51U U139G U144A", "outcome measure": "polymerase ribozyme fitness (log ratio)", "assay value": 0.259}
{"mutant name": "A37C A97G", "outcome measure": "polymerase ribozyme fitness (log ratio)", "assay value": 0.477}
{"mutant name": "G11A C14A A40G C79A C93A G124A", "outcome measure": "polymerase ribozyme fitness (log ratio)", "assay value": "≤ -4.2"}
{"mutant name": "C93U U151A", "outcome measure": "polymerase ribozyme fitness (log ratio)", "assay value": "≤ -4.2"}
{"mutant name": "U53A C72G C85U U127A", "outcome measure": "polymerase ribozyme fitness (log ratio)", "assay value": "≤ -4.2"}
{"mutant name": "A19U C36U G86C C93U G100A G126C", "outcome measure": "polymerase ribozyme fitness (log ratio)", "assay value": "≤ -4.2"}
{"mutant name": "U13A U53A C63G A97U U102G A142C", "outcome measure": "polymerase ribozyme fitness (log ratio)", "assay value": "≤ -4.2"}
{"mutant name": "C8G A17G A21U A98G", "outcome measure": "polymerase ribozyme fitness (log ratio)", "assay value": -3.93}
{"mutant name": "U31G G50A C51U G62C G68U C95U U101G A106C", "outcome measure": "polymerase ribozyme fitness (log ratio)", "assay value": "≤ -4.2"}
{"mutant name": "G59U C69U G86A C95G A107U", "outcome measure": "polymerase ribozyme fitness (log ratio)", "assay value": "≤ -4.2"}
{"mutant name": "A20C A52G A142G", "outcome measure": "polymerase ribozyme fitness (log ratio)", "assay value": -2.02}
{"mutant name": "G34C U45A G50C A52C U53A C76A G81A G92A C105G", "outcome measure": "polymerase ribozyme fitness (log ratio)", "assay value": "≤ -4.2"}
{"mutant name": "C10A", "outcome measure": "polymerase ribozyme fitness (log ratio)", "assay value": -2.83}
{"mutant name": "A40C G50U C85U", "outcome measure": "polymerase ribozyme fitness (log ratio)", "assay value": 0.316}
{"mutant name": "A17G A24C A41U A91U A98G", "outcome measure": "polymerase ribozyme fitness (log ratio)", "assay value": "≤ -4.2"}
{"mutant name": "U13C C36A C85G C99A A138C", "outcome measure": "polymerase ribozyme fitness (log ratio)", "assay value": "≤ -4.2"}
{"mutant name": "U4G C14G C76G", "outcome measure": "polymerase ribozyme fitness (log ratio)", "assay value": "≤ -4.2"}
{"mutant name": "G48A G62A A73U A91G C95G U139A A142C", "outcome measure": "polymerase ribozyme fitness (log ratio)", "assay value": "≤ -4.2"}
{"mutant name": "U31A C54A G84U C85U", "outcome measure": "polymerase ribozyme fitness (log ratio)", "assay value": -2.6}
{"mutant name": "C93G C132G", "outcome measure": "polymerase ribozyme fitness (log ratio)", "assay value": "≤ -4.2"}
{"mutant name": "C27U A49G", "outcome measure": "polymerase ribozyme fitness (log ratio)", "assay value": -2.49}
{"mutant name": "A22U G46U C69A C93A C131A U148A", "outcome measure": "polymerase ribozyme fitness (log ratio)", "assay value": "≤ -4.2"}
{"mutant name": "C38A U109A C114U C116G", "outcome measure": "polymerase ribozyme fitness (log ratio)", "assay value": "≤ -4.2"}
{"mutant name": "C10G A20C A40U A64G G70U C87U", "outcome measure": "polymerase ribozyme fitness (log ratio)", "assay value": "≤ -4.2"}
{"mutant name": "A40G C93U C99U", "outcome measure": "polymerase ribozyme fitness (log ratio)", "assay value": -4.16}
{"mutant name": "A19G A40C C85G A147C", "outcome measure": "polymerase ribozyme fitness (log ratio)", "assay value": -3.28}
{"mutant name": "G92U A147C", "outcome measure": "polymerase ribozyme fitness (log ratio)", "assay value": -0.377}
{"mutant name": "C76G A106G G133A", "outcome measure": "polymerase ribozyme fitness (log ratio)", "assay value": "≤ -4.2"}
{"mutant name": "A21G C32G G34C U56A G59C U82G G88U C103G G140U", "outcome measure": "polymerase ribozyme fitness (log ratio)", "assay value": "≤ -4.2"}
